target: Beta-2 adrenergic receptor (Homo sapiens) (UniProt P07550); test: Adrenergic beta2 receptor (ADRB2) small molecule antagonists, cell-based qHTS assay (AID 1963592); conditions: CHO-ADRB2 cells, isoproterenol-stimulated cAMP HTRF ratio, 0.5 h; series mostly up to 92.4 µM; note: % is set by controls: 0 for no effect and ±100 for the full control effect; nearly all actives have a fitted effect of over 50% in size
Sequence (P07550 whole entry, looked up): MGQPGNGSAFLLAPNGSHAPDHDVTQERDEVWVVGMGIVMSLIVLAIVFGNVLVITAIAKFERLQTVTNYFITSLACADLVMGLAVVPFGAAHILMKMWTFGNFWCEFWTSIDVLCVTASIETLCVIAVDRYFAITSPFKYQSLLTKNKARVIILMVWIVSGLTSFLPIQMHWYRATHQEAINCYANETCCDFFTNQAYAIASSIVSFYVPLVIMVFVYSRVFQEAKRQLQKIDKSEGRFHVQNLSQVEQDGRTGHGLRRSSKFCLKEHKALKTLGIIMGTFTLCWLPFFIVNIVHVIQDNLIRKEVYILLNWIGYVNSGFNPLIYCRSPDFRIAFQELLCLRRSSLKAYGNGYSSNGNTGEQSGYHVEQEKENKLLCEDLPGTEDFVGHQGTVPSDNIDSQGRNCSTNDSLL
Inconclusive results are not listed. Active and inactive are the calls of the source. Calls come from the whole dose curve.
readout_label: activity change, negative = inhibition

Completed entries (count: 5):
O=C(O)c1cc(Cl)cc(Cl)c1O | inactive
C/C=C/C=C/COC(=O)C(C)C | inactive
N#CSc1ccc(N)c([N+](=O)[O-])c1 | inactive
Cc1ccc2c(c1)C(=O)c1ccccc1C2=O | inactive
O=C(CCOCCOCCOCCOCCC(=O)Nc1c(I)cc(I)c(C(=O)O)c1I)Nc1c(I)cc(I)c(C(=O)O)c1I | inactive

Look up activity change, negative = inhibition for the entries below, preserving their order.
1. C[C@@H]1C[C@H]2[C@@H]3CCC4=CC(=O)C=C[C@]4(C)[C@@]3(F)[C@@H](O)C[C@]2(C)[C@@]1(O)C(=O)COP(=O)(O)O
2. CCCCOC(=O)CC
3. CC(C)NNC(=O)c1ccncc1
4. O=C1[C@H](CC[C@H](O)c2ccc(F)cc2)[C@@H](c2ccc(O)cc2)N1c1ccc(F)cc1
5. Cc1occc1C(=O)Nc1ccc(C(=O)N2CCC(F)(F)/C(=C\C(=O)N3CCC(N4CCCCC4)CC3)c3ccccc32)cc1

**Result**
inactive
inactive
inactive
inactive
inactive

Look up activity change, negative = inhibition for the entries below, preserving their order.
1. COc1c(N2CCNC(C)C2)c(F)cc2c(=O)c(C(=O)O)cn(C3CC3)c12 (stereo not given)
2. CCCCCCC(O)CCOC(C)=O (stereo not given)
3. O=C(O)C(=O)Cc1c[nH]c2ccccc12
4. CCc1nccnc1C
5. Oc1ccc2c(c1)OCO2
6. CCOC(=O)C1=NOC(c2ccccc2)(c2ccccc2)C1
7. O=C(O)CCN(C1(C(=O)NO)CCCC1)S(=O)(=O)c1ccc(Oc2ccc(F)cc2)cc1

**Result**
1. inactive
2. inactive
3. inactive
4. inactive
5. inactive
6. inactive
7. inactive

Look up activity change, negative = inhibition for the entries below, preserving their order.
1. Cc1ccc(N)nc1
2. CCCCC(CC)COC(=O)CCCCCCCCC(=O)OCC(CC)CCCC (stereo not given)
3. C[C@@H](O)[C@H](N)C(=O)O
4. CCN(CC)CCNC(=O)c1cc(Br)c(N)cc1OC
5. CS(=O)(=O)c1ccc([C@@H](C[C@H]2CCC(=O)C2)C(=O)Nc2cnccn2)cc1Cl

**Result**
1. inactive
2. inactive
3. 2.52% [at 19 µM] (inactive)
4. inactive
5. inactive

Look up activity change, negative = inhibition for the entries below, preserving their order.
1. CC(C)(C#N)Nc1nc(Cl)nc(NC2CC2)n1
2. CCOC(=N)CC(=O)OCC
3. CC(C)(O)c1ccccc1CC[C@@H](SCC1(CC(=O)O)CC1)c1cccc(/C=C/c2ccc3ccc(Cl)cc3n2)c1

**Result**
["inactive", "inactive", "inactive"]

Cited source for all entries: PubChem BioAssay (Tox21)
